Target: Asp-ase (Rattus norvegicus)
Construct: Asp-ase purified by HPLC as previously described; endogenous in cells; host or cells: rat RNK LGL leukemia cells, cytolytic granules, HPLC-purified (Sayers et al. 1992)
Sequence (P18291 21-248): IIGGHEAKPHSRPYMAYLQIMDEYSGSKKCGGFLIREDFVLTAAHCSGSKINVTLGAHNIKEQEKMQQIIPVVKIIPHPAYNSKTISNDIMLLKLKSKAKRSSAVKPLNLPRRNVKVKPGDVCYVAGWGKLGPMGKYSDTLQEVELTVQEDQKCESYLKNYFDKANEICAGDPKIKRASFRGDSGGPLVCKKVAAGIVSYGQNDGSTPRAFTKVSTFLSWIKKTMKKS
Experiment: Initial rates of peptide thiobenzyl ester substrate hydrolysis by HPLC-purified Asp-ase
Assay type: biochemical
Details: 10 μl enzyme solution; [S] 100-133 μM; 0.1 M Hepes, 0.01 M CaCl2, pH 7.5, 8% Me2SO, 25° C.
Method: Briefly, 50 μl of sample was added to 100 μl of 1 mM DTNB, made up in 10 mM Hepes, 1 mM CaCl2, 1 mM MgCl2, pH7.2. The reaction was initiated by the addition of 50 μl of BLT (Sigma) to give a final concentration of 500 μM. […] The duration of the assay depended on color development, the rate of which was measured (0.D410) on a Dynatech MR 5000 microplate reader. […] Initial rates were measured in duplicate for each substrate concentration and were averaged in each case. […]
Starred links: 1 amine or outer side, 2 acyl side, 3 side chain; linkers in the order of their positions; H or OH if unused. Residues, ends and D or L forms follow the SMILES beside them. *: point of attachment. Suc = O=C(CCC(=O)[*:2])[*:1]; Boc = CC(C)(C)OC(=O)*; SBn = c1ccc(CS*)cc1
REPORTED_ENDPOINT: Initial Rates, Asp-ase (nM/s)

C[C@H](NC(=O)OC(C)(C)C)C(=O)N[C@@H](C)C(=O)N[C@@H](CC(=O)O)C(=O)SCc1ccccc1 [Boc--Ala--Ala--Asp--SBz1, Boc-Ala-Ala-Asp-SBzl] (Boc-Ala-Ala-Asp-SBn); 12.6
CC(C)C[C@H](NC(=O)[C@H](Cc1ccccc1)NC(=O)CCC(=O)O)C(=O)N[C@@H](Cc1ccccc1)C(=O)SCc1ccccc1 [Suc--Phe--Leu--Phe--SBz1, Suc-Phe-Leu-Phe-SBzl] (Suc-Phe-Leu-Phe-SBn); 0
C[C@H](NC(=O)OC(C)(C)C)C(=O)N[C@@H](C)C(=O)N[C@@H](CO)C(=O)SCc1ccccc1 [Boc--Ala--Ala--Ser--SBz1] (Boc-Ala-Ala-Ser-SBn); 1.3
CSCC[C@H](NC(=O)[C@H](C)NC(=O)[C@H](C)NC(=O)OC(C)(C)C)C(=O)SCc1ccccc1 [Boc--Ala--Ala--Met--SBz1, Boc-Ala-Ala-Met-S Benzyl (Bzl)] (Boc-Ala-Ala-Met-SBn); 0
N=C(N)NCCC[C@H](NC(=O)OCc1ccccc1)C(=O)SCc1ccccc1 [Z--Arg--SBz1, Z-Arg-SBzl]; 0
